target: Cytochrome P450 2C9 (Homo sapiens); test: Cytochrome panel assay with activity outcomes; conditions: recombinant CYP, pro-luciferin dealkylation, luminescence, p450-cyp2c9; series mostly up to 57.1 µM
Hit rate of the full screen: of about 16,000 compounds, about 4,000 (25%) were called active. Another 26% or so got no clear call; they are omitted. A selection follows.
readout label: AC50

• O=C(O)c1cc[c]([Hg][S]c2ncnc3nc[nH]c23)cc1 = 1.26 µM (active)
• C=CCN1C[C@H](C)N([C@H](c2ccc(C(=O)N(CC)CC)cc2)c2cccc(O)c2)C[C@H]1C = 3.98 µM (active)
• CCCCCCCCC(=O)NCc1ccc(O)c(OC)c1 = 3.16 µM (active)
• S=C(S)N1CCCC1 = 20 µM (active)
• Cc1ccc(C(=O)C2C(=O)c3ccccc3C2=O)cc1 = 2.24 µM (active)
• CC(=O)Nc1ccccc1C(=O)OCc1ccc(C(=O)c2ccccc2)cc1 = 3.55 µM (active)
• Cc1cc(C)c(C#N)c(SCC(=O)c2ccc(Cl)cc2Cl)n1 = 5.01 µM (active)
• CC[C@H](Oc1ccc(Cl)cc1)C(=O)OC1C[C@H]2CC[C@@H](C1)N2C (stereo partly drawn) = 0.1 µM (active)

* * *

target: Cytochrome P450 2C9 (Homo sapiens) (UniProt P11712); experiment: Cytochrome panel assay with activity outcomes; details: recombinant CYP, pro-luciferin dealkylation, luminescence, p450-cyp2c9; series mostly up to 57.1 µM; for activity, negative = inhibition: % is set by controls: 0 for no effect and ±100 for the full control effect
Sequence (P11712 whole entry, looked up): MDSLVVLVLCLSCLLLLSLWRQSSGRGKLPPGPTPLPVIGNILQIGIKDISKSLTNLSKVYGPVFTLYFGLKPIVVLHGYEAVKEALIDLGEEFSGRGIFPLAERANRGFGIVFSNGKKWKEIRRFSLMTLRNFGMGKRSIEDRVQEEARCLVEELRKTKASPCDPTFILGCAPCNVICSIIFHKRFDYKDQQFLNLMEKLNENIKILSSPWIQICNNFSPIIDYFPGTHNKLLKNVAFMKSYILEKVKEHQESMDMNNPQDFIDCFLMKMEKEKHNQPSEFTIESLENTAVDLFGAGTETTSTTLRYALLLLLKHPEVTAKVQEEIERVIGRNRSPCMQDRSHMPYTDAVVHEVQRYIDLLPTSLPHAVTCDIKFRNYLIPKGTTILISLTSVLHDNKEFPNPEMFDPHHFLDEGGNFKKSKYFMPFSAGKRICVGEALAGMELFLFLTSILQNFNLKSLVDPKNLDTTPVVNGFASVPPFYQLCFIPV
Hit rate of the full screen: of about 16,000 compounds, about 4,000 (25%) were called active. About 26% were inconclusive and are not listed. A selection follows.
readout label: activity, negative = inhibition

• COc1ccccc1CN1CC[C@@]2(CCCN(C(=O)Oc3ccccc3)C2)C1 = inactive
• O=[N+]([O-])c1ccc2nc(N3CCNCC3)ccc2c1 = inactive
• C[C@H](CCC(=O)O)[C@H]1CC[C@]2(C)[C@@H]3C(=O)C[C@H]4C(C)(C)[C@@H](O)CC[C@]4(C)[C@H]3C(=O)C[C@@]12C = -0.996% [at 11.4 µM] (inactive)
• COc1cc(C[C@H](C)N)c(OC)cc1I = inactive
• CC[C@@H]1CN2CCc3cc(OC)c(OC)cc3[C@H]2C[C@@H]1C[C@H]1NCCc2cc(OC)c(OC)cc21 = inactive
• COc1cc2c3cc1Oc1cc(ccc1O)C[C@@H]1c4c(cc(OC)c(O)c4Oc4cccc(c4)C[C@H]3N(C)CC2)CC[N+]1(C)C = inactive
• CS(=O)(=O)O[C@H]1CN2CCC1CC2 = 8.53% [at 11.4 µM] (inactive)
• C[C@@]12CC[C@H]3[C@@H](CCC4=CC(=O)CC[C@]43C)[C@H]1CC[C@H]2C(=O)CO = inactive
• CC[C@H](CO)NC(=O)[C@@H]1C=C2c3cccc4c3c(cn4C)C[C@@H]2N(C)C1 = inactive
• CCCN1CCC[C@@H]2Cc3nc(N)ncc3C[C@H]21 = inactive
• CC(=O)OCC(=O)[C@@H]1CC[C@H]2[C@H]3CC[C@H]4C[C@@H](O)CC[C@]4(C)[C@@H]3C(=O)C[C@@]12C = inactive
• CNC[C@H](O)c1ccc(OC(=O)C(C)(C)C)c(OC(=O)C(C)(C)C)c1 = inactive
• CC(C)[N+](C)(CCC(C(N)=O)(c1ccccc1)c1ccccc1)C(C)C = inactive
• O[C@@H](c1cc(-c2ccccc2)nc2c1ccc1ccccc12)[C@@H]1CCCCN1 = -8.99% [at 11.4 µM] (inactive)
• CC1(C)[C@@H]2CC[C@]1(C)CN(CCC[N+](C)(C)C)C2 = 1.62% [at 11.4 µM] (inactive)
• CN(C)CCC=C1c2ccccc2CCc2ccccc21 = inactive
• O=C(c1ccccc1)[C@H]1[C@H](c2ccccc2[N+](=O)[O-])N1C1CCCCC1 (some centres undefined) = -9.93% [at 11.4 µM] (inactive)
• C[C@@]12CC(=O)[C@H]3[C@@H](CCC4=CC(=O)CC[C@]43C)[C@H]1CCC2=O = inactive
• O=S(=O)(O)/C(=C\c1ccccc1)c1ccccc1 (tested in a mixture with another compound) = -14.8% [at 11.4 µM] (inactive)
• Cc1cc(C)nc(NC2=NCCS2)n1 = inactive
• N[C@H](Cc1ccc(N(CCCl)CCCl)cc1)C(=O)O = inactive
• C[C@]12CC[C@H](O)C[C@@H]1CC[C@H]1[C@H]2CC[C@]2(C)C(=O)CC[C@@H]12 = inactive
• C[N+]1([O-])[C@@H]2CC(OC(=O)[C@@H](CO)c3ccccc3)C[C@@H]1[C@H]1O[C@H]12 (some centres undefined) = inactive
• CN1C(=O)COc2c(C(=O)N[C@@H]3CN4CCC3CC4)cc(Cl)cc21 = inactive
• Nc1ccc(S(=O)(=O)c2ccc(NCN3C(=O)NC(=O)C(=O)C3=O)cc2)cc1 = 7.48% [at 11.4 µM] (inactive)
• C[C@@H]1OC=C2[C@@H](O)[C@H]3O[C@H]3C(=O)[C@@]23[C@H]1[C@H]1C2=C([C@@H](O)[C@H]4O[C@@H]4C2=O)[C@@H]3O[C@@H]1C = 19.8% [at 11.4 µM] (inactive)
• C[N+]12CCC(CC1)[C@@H](OC(=O)C(O)(c1ccccc1)c1ccccc1)C2 = inactive
• Nc1ccccc1O.O.O=C(O)[C@H]1[O][Sb][O][C@H]1C(=O)O = 14.2% [at 11.4 µM] (inactive)
• CO[C@@H]1CC=C2CCN3CCC4=C(CC(=O)OC4)[C@]23C1 = inactive
• O=[As](O)(O)c1ccc(N=Nc2ccc(O)cc2)cc1 = -6.31% [at 11.4 µM] (inactive)
• c1ccc(C2CC2)c(OCC2=NCCN2)c1 = inactive
• COc1ccccc1CC1C(=O)C2CCN1CC2 (centres undefined) = inactive
• C[C@]12CC[C@@H]3C(=CCc4cc(O)ccc43)[C@@H]1CCC2=O = inactive
• NC(=O)c1cc(N2CC2)c([N+](=O)[O-])cc1[N+](=O)[O-] = inactive

* * *

# AC50 annotations
target: Cytochrome P450 2C9 (Homo sapiens); test: Cytochrome panel assay with activity outcomes; details: recombinant CYP, pro-luciferin dealkylation, luminescence, p450-cyp2c9; series mostly up to 57.1 µM
Among all 16,000 compounds or so, about 4,000 (25%) were called active. Not shown: some 26% with an inconclusive outcome. Only a sample is shown.
readout label: AC50

- CCCCn1c(O)c(C(CC)=NCc2ccc(F)cc2)c(=O)[nH]c1=O: 3.55 µM (active)
- Cc1cc(OCC(=O)OC(C)C)c2c3c(c(=O)oc2c1)CCCC3: 2 µM (active)
- CC1=NN(c2ccccc2)C(=O)[C@@H]1N=Nc1ccc([As](=O)(O)O)c(O)c1: 3.16 µM (active)
- C[C@]12CC[C@H](O)C[C@@H]1CC[C@H]1[C@H]2CC[C@]2(C)[C@H](C(=O)CO)CC[C@@H]12: 25.1 µM (active)
- COc1cc(OC)c(/C=C2/C(=O)Nc3ccccc32)c(OC)c1: 25.1 µM (active)
- O=C(/C=C\c1ccc(Cl)cc1)N[C@@]12CCC(=O)[C@@H]3Oc4c(O)ccc5c4[C@@]31CCN(CC1CC1)[C@@H]2C5: 15.8 µM (active)
- Cc1sc2c(c1C)C(c1ccc(C(C)(C)C)cc1)=NCC(=O)N2CC(=O)Nc1nccs1: 12.6 µM (active)
- C[C@H](Br)CN(C[C@H](C)Br)c1ccc2c(c1)Cc1ccccc1-2: 3.16 µM (active)
- CCCCn1c(O)c(C(CC)=Nc2ccc(OC)cc2OC)c(=O)[nH]c1=O: 14.1 µM (active)
- CN(C)CCC(=O)[C@@]1(O)CC[C@H]2[C@H]3CC=C4C[C@@H](O)CC[C@]4(C)[C@H]3CC[C@]21C: 2.51 µM (active)
- COC(=O)C1=Nc2ccccc2/C1=C\c1c(O)n(-c2ccc(OC)cc2)c(=O)[nH]c1=O: 1.26 µM (active)
- COc1cc(N)c(Cl)cc1C(=O)N[C@@H]1CN2CCC1CC2: 12.6 µM (active)
- O=C(Nc1ccc(Cl)cc1)Nc1nccs1: 17.8 µM (active)
- O=C(COc1ccc2ccccc2c1)N1CCN(CC2CC3C=CC2C3)CC1 (centres undefined): 17.8 µM (active)
- Ic1cncc(OC[C@@H]2CCN2)c1: 31.6 µM (active)
- C=C(CC1(CNP(=O)(c2ccccc2)c2ccccc2)CC1)c1ccccc1: 10 µM (active)
- COC(=O)c1[nH]c2ccc(Br)cc2c1NC(=O)Oc1ccccc1: 8.91 µM (active)
- CN1C(=O)c2ccccc2Sc2ccc(C(=O)N3CCC4(CC3)OCCO4)cc21: 8.91 µM (active)
- C=CCO[C@@H](Cn1ccnc1)c1ccc(Cl)cc1Cl: 0.1 µM (active)

FYI, the data here is from PubChem BioAssay AID1851.
